Values were extracted from paper PMC5540273.

Test system: HASPIN
Construct: gene GSG2
Conditions: concentration: 1 μM, replicates: in singlicate; n = 1;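 also: KINOMEscan kinase panel screen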

- Compound: "O=S(=O)(c1ccc(-c2ccnc3[nH]ccc23)cc1)N1CCCC1"
  %Inh: "12%"
- Compound: "Cc1ccccc1-n1cnc2c(N)ncnc21"
  %Inh: "0%"
- Compound: "Cc1cc(NCC(c2ccccc2)c2ccccc2)nc(NCc2ccc(C(F)(F)F)cc2)n1"
  %Inh: "0%"
- Compound: "Cn1cncc1-c1ccc2ncnc(Nc3ccc(OCc4ccccc4)cc3)c2c1"
  %Inh: "10%"
- Compound: "Cn1ccc2ncnc(Oc3ccc(NC(=O)Nc4ccccc4)cc3)c21"
  %Inh: "24%"
- Compound: "O=C1NC(=O)C(N2CCc3ccccc32)=C1c1ccccc1Cl"
  %Inh: "100%"
- Compound: "COc1ccc(Nc2nccc(NCCNC(=O)Nc3ccccc3F)n2)cc1"
  %Inh: "0%"
- Compound: "Cc1cc(N2Cc3ccccc3C2)nc(Nc2ccc(S(=O)(=O)N3CCOCC3)cc2)n1.Cl"
  %Inh: "0%"
- Compound: "Cc1cccc(-c2nc(Nc3ccc4[nH]ncc4c3)c3ccccc3n2)n1"
  %Inh: "68%"
- Compound: "COc1ccc(C2=C(Nc3cccc(C(=O)O)c3)C(=O)NC2=O)cc1"
  %Inh: "28%"
- Compound: "CCCc1ccc(S(=O)(=O)NC2CCN(c3ccnc(Nc4ccc(F)cc4)n3)C2)cc1 (stereo not shown)"
  %Inh: "0%"
- Compound: "Cc1cccc(-c2nc(Nc3cccc(C(N)=O)c3)c3ccccc3n2)n1"
  %Inh: "14%"
- Compound: "Cc1ccc(NC(=O)Nc2cccc(Cl)c2)cc1-c1ccc(C(=O)Nc2ccncc2)cc1"
  %Inh: "0%"
- Compound: "Fc1cc(Cl)ccc1Nc1ccnc2cc(-c3ccc(CN4CCCCC4)o3)ccc12"
  %Inh: "32%"
- Compound: "Fc1cc(Cl)ccc1Nc1ccnc2cc(I)ccc12"
  %Inh: "0%"
- Compound: "CC1=C(C(=O)Nc2cc3cn[nH]c3cc2F)C(c2ccc(C(F)(F)F)cc2)CC(=O)N1 (stereo not shown)"
  %Inh: "0%"
- Compound: "Cl.c1ccc(-c2n[nH]cc2-c2ccnc(-c3ccc(CN4CCOCC4)cc3)c2)nc1"
  %Inh: "0%"
- Compound: "CCn1c(-c2cccnc2O)nc2cnccc21"
  %Inh: "0%"
- Compound: "Clc1cc(Cl)cc(Nc2ccnc(Nc3cc(Cl)cc(Cl)c3)n2)c1"
  %Inh: "0%"

###

Tested on: ERK2
Construct: gene MAPK1
Conditions: concentration: 1 μM, replicates: in singlicate; n = 1
// values below are reported %Inh

- Compound: "Cc1cccc(-c2cc(Nc3ccncc3)c3ccccc3n2)n1 [GSK223675]"
  Units Text: "%"
  %Inh: 0
- Compound: "CN(C)CCN(C)C(=O)c1cc(-c2ccncc2)c(-c2ccc(Cl)c(O)c2)o1.Cl.Cl [SB-710397]"
  Units Text: "%"
  %Inh: 0
- Compound: "COc1cc(Nc2nccc(N3CCC(NC(=O)Nc4cc(C)ccc4C)C3)n2)cc(OC)c1OC (stereo not shown) [GSK1379762]"
  Units Text: "%"
  %Inh: 0
- Compound: "COc1cc2ncnc(Nc3ccc4nc(-c5ccccc5)[nH]c4c3)c2cc1OC.Cl [GW282450]"
  Units Text: "%"
  %Inh: 0
- Compound: "Cn1ccc2ncnc(Oc3cccc(C(=O)Nc4ccccc4)c3)c21"
  Units Text: "%"
  %Inh: 21
- Compound: "NC(=O)c1nnc2ccccc2c1N"
  Units Text: "%"
  %Inh: 18
- Compound: "Cc1cccc(-c2nc(-c3ccc(S(C)(=O)=O)cc3)sc2-c2ccnc(NCCc3ccccc3)c2)c1"
  Units Text: "%"
  %Inh: 0
- Compound: "COc1ccccc1-c1ccc2c(NC(=O)C3CC3)n[nH]c2n1 [SB-711239]"
  Units Text: "%"
  %Inh: 3
- Compound: "O=S(=O)(c1ccc(-c2ccnc3[nH]ccc23)cc1)N1CCCC1 [GSK846226]"
  Units Text: "%"
  %Inh: 0
- Compound: "CC(=O)Nc1nc2cnc(Nc3cc(NC(=O)c4cccc(CCC#N)c4)ccc3C)nc2s1"
  Units Text: "%"
  %Inh: 21
- Compound: "COC(=O)c1c(-c2ccccc2)c2cc(OC)ccc2c(=O)n1Cc1ccccc1"
  Units Text: "%"
  %Inh: 17
- Compound: "CC(C)(C)c1ccc(C(=O)Nc2cn3cc(Cl)ccc3n2)cc1"
  Units Text: "%"
  %Inh: 0
- Compound: "Cl.c1ccc(-c2n[nH]cc2-c2ccnc(-c3ccc(CN4CCOCC4)cc3)c2)nc1 [GW776245]"
  Units Text: "%"
  %Inh: 12
- Compound: "O=C1NC(=O)C(N2CCc3ccccc32)=C1c1ccccc1Cl [SB-373598]"
  Units Text: "%"
  %Inh: 0
- Compound: "Nc1nc(-c2nccs2)c(-c2ccnc3ccccc23)s1 [GW693542]"
  Units Text: "%"
  %Inh: 0
- Compound: "Cc1ccc(NC(=O)Nc2cccc(Cl)c2)cc1-c1ccc(C(=O)Nc2ccncc2)cc1 [GSK1398468]"
  Units Text: "%"
  %Inh: 0
- Compound: "Cc1cccc(-c2nc(Nc3ccc4[nH]ncc4c3)c3ccccc3n2)n1 [GW857175]"
  Units Text: "%"
  %Inh: 4
- Compound: "Fc1cc(Cl)ccc1Nc1ccnc2cc(I)ccc12 [GW551191]"
  Units Text: "%"
  %Inh: 0
- Compound: "COc1cccc(-c2cc(-c3c[nH]nc3-c3ccccn3)ccn2)c1 [GW680338]"
  Units Text: "%"
  %Inh: 0
